target: cynomolgus monkey IL-17A (cynomolgus monkey, UniProt A0A2K5TTB0 24-155); assay: cell-based or functional assay
Sequence (A0A2K5TTB0 entry or part of it): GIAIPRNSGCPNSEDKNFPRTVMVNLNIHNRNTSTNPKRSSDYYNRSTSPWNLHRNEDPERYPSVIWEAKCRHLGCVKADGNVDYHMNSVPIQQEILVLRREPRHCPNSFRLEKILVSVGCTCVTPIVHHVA
measured metric: Potency (pM), IL-17-driven IL-6 production in HS27 cells
Note: unit pM is implicit; provide only the numeric part.

[
  {
    "binder": "IL17-h5C5.9 (antibody, V domains shown, IgG; constant regions not specified; also called h5C5.9 (VH.1b-Vk.1a)) VH: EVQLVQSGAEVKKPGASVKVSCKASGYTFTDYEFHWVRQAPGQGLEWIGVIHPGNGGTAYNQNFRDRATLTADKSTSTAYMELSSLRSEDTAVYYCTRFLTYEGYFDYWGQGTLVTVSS VL: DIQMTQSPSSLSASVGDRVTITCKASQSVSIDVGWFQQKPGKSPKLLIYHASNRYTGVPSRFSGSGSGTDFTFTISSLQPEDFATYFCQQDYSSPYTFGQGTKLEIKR",
    "reading unit": "pM",
    "value observed": 19
  }
]

Look up Potency (pM), IL-17-driven IL-6 production in HS27 cells of IL17-h5C5.19 (antibody, V domains shown, IgG; constant regions not specified) VH: QVQLQQSGAELVRPGASVKLSCKALGYTFTDYEFHWVKQTPVHGLEWIGVIHPGNGGTAYNQNFRDKATLTADKSSSTAYMELSSLTSEDSGVYYCTRFLTYEGYFDYWGQGTALTVSS VL: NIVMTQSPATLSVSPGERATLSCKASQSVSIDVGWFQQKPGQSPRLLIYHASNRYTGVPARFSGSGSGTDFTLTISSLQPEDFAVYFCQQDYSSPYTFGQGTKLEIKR and report it.
9

Specify Potency (pM), IL-17-driven IL-6 production in HS27 cells for IL17-h5C5.15 (antibody, V domains shown, IgG; constant regions not specified; also called h5C5.15 (VH.1b-Vk.3a)) VH: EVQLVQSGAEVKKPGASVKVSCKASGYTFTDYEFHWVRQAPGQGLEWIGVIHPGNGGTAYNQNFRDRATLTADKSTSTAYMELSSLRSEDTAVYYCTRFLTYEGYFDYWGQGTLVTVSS VL: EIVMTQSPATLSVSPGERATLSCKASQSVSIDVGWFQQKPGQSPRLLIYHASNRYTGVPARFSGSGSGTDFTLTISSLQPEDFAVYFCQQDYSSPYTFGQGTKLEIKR and stop.
12

Entry IL17-h5C5.21 (antibody, V domains shown, IgG; constant regions not specified; also called h5C5.21 (VH.1b-Vk.3c)) VH: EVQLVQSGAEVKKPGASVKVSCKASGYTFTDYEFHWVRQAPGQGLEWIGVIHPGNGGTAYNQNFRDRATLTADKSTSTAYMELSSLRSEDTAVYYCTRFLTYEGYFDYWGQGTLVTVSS VL: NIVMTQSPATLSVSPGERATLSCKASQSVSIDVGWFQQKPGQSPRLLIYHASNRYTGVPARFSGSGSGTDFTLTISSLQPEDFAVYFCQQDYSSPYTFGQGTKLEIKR needs its Potency (pM), IL-17-driven IL-6 production in HS27 cells filled in; supply it.
9

Quickly give me recorded Potency (pM), IL-17-driven IL-6 production in HS27 cells for IL17-h5C5.3 (antibody, V domains shown, IgG; constant regions not specified) VH: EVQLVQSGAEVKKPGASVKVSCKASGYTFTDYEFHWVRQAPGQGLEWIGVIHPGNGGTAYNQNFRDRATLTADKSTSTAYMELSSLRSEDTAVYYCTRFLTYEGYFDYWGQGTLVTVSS VL: NIVMTQTPKFLLVSPGDRVTITCKASQSVSIDVGWFQQKPGQSPKLLIYHASNRYTGVPDRFTGSGYGTDFTFTVNTVQAEDLAVYFCQQDYSSPYTFGGGTKLELKR
12
